# target_entity: T1, CD28-GFP (human, UniProt P10747 19-220)
# T1 construct: human CD28, member of the human Ig superfamily library; source: HEK293F, transfected, on cells; not shown: GFP, C-terminal, kept
# protocol_summary: flow cytometry on cells; cell-cell conjugates: HEK293F cells expressing 92 B7-1–mCherry point mutants (IgV domain) against HEK293F cells expressing CTLA-4–GFP, CD28-GFP or p75NTR-GFP; percent of WT binding
# protocol_conditions: partners not purified
experimental_readout: loss in binding relative to WT

Previously resolved entries follow.
* hB7-1 I36D–mCherry (ligand, human, UniProt P33681 35-288, looked up, human B7-1 (CD80), point mutant in the IgV domain; source: HEK293F, transfected, on cells) VDHVTKEVKEVATLSCGHNVSVEELAQTRIYWQKEKKMVLTMMSGDMNIWPEYKNRTIFDITNNLSIVILALRPSDEGTYECVVLKYEKDAFKREHLAEVTLSVKADFPTPSISDFEIPTSNIRRIICSTSGGFPEPHLSWLENGEELNAINTTVSQDPETELYAVSSKLDFNMTTNHSFMCLIKYGHLRVNQTFNWNTTKQEHFPDNLLPSWAITLISVNGIFVICCLTYCFAPRCRERRRNERLRRESVRPV | > 25%
* hB7-1 T39A–mCherry (ligand, human, UniProt P33681 35-288, looked up, human B7-1 (CD80), point mutant in the IgV domain; source: HEK293F, transfected, on cells) VIHVAKEVKEVATLSCGHNVSVEELAQTRIYWQKEKKMVLTMMSGDMNIWPEYKNRTIFDITNNLSIVILALRPSDEGTYECVVLKYEKDAFKREHLAEVTLSVKADFPTPSISDFEIPTSNIRRIICSTSGGFPEPHLSWLENGEELNAINTTVSQDPETELYAVSSKLDFNMTTNHSFMCLIKYGHLRVNQTFNWNTTKQEHFPDNLLPSWAITLISVNGIFVICCLTYCFAPRCRERRRNERLRRESVRPV | > 25%

Let's switch to this binder now.
IN: If you can, please state the reported loss in binding relative to WT value of hB7-1 S49A–mCherry (ligand, human, UniProt P33681 35-288, looked up, human B7-1 (CD80), point mutant in the IgV domain; source: HEK293F, transfected, on cells) VIHVTKEVKEVATLACGHNVSVEELAQTRIYWQKEKKMVLTMMSGDMNIWPEYKNRTIFDITNNLSIVILALRPSDEGTYECVVLKYEKDAFKREHLAEVTLSVKADFPTPSISDFEIPTSNIRRIICSTSGGFPEPHLSWLENGEELNAINTTVSQDPETELYAVSSKLDFNMTTNHSFMCLIKYGHLRVNQTFNWNTTKQEHFPDNLLPSWAITLISVNGIFVICCLTYCFAPRCRERRRNERLRRESVRPV .
OUT: > 25%
